system: HCV replicon (NS3-NS5B regions of HCV type 1b) in Huh-7 luc/neo cells; assay: HCV replicon assay (Huh-Luc cells, luciferase read-out); assay type: cell-based; details: Hepatitis C virus, Huh-7; Table 1C; comparison with spiro-oxetane derivatives; read-out: HCV, Huh-7 (EC50)
Reported pEC50 values are given for each entry in this list.
The scale used: pEC50 is minus the common logarithm of the concentration in molar units.

[Q] # pEC50 lookup, item CC(C)OC(=O)[C@H](C)NP(=O)(OC[C@H]1O[C@@H](n2ccc(=O)[nH]c2=O)[C@@]2(CCS2)[C@@H]1O)Oc1ccccc1 (stereo partly shown) [Compound 9]
[A] 6.00

[Q] # pEC50 lookup, item CC(C)OC(=O)[C@H](C)NP(=O)(OC[C@H]1O[C@@H](n2ccc(=O)[nH]c2=O)[C@@]2(CCO2)[C@@H]1O)Oc1ccccc1 (mixture of isomers) [reference compound]
[A] 4.68

[Q] # pEC50 lookup, item CC(C)OC(=O)[C@H](C)NP(=O)(OC[C@@]1(F)O[C@@H](n2ccc(=O)[nH]c2=O)[C@@]2(CCS2)[C@@H]1O)Oc1ccccc1 (stereo partly shown) [Compound 23]
[A] 5.70
